target: Gal4 DNA binding domain fused to the LBD of LXRβ in HEK293 cells (Homo sapiens (Human), UniProt P55055); test: cell-based; conditions: Biological Test Example 2, agonist mode
Sequence (P55055 222-460 limits assumed): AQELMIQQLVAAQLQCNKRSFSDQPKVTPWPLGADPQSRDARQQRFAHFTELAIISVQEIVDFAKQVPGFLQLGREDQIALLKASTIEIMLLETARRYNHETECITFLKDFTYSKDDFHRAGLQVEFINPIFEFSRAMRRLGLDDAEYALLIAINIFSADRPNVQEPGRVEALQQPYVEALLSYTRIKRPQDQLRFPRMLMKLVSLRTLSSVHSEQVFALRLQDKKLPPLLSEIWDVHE
Readings of Cell LXRβ efficacy for the listed compounds
Write it as a number; the unit % goes unstated.

Would you please look over these solved cases?
CS(=O)(=O)c1cc(N2CCN(C[C@H]3CC[C@H](C(F)(F)F)CC3)[C@@H](c3ccccc3)C2)ccc1C#N (single isomer, unassigned) [50-4] = 23
CC(C)[C@H]1CC[C@H](CN2CCN(c3ccc(CO)c(S(C)(=O)=O)c3)C[C@H]2c2ccccc2)CC1 (single isomer, unassigned) [48-78] = 10
CS(=O)(=O)c1cccc(N2CCN(C[C@H]3CC[C@H](C(F)(F)F)CC3)[C@@H](c3ccccc3Cl)C2)c1 (single isomer, unassigned) [48-46] = 35
CS(=O)(=O)c1cccc(N2CCN(C[C@H]3C[C@@H]4[C@H](C3)C4(F)F)[C@@H](c3ccccc3)C2)c1 [48-64] = 11
CS(=O)(=O)c1cc(N2CCN(C[C@H]3CC[C@@H](C(F)(F)F)CC3)[C@@H](c3ccccc3)C2)ccc1C#N (single isomer, unassigned) [50-6] = 53
CS(=O)(=O)c1cccc(N2CCN(C[C@H]3CC[C@]4(CC3)CC4(F)F)[C@H](c3ccccc3)C2)c1 [48-72] = 31
CS(=O)(=O)c1cccc(N2CCN(C[C@@H]3C[C@H]4CC[C@@H](C3)N4CC(F)(F)F)[C@@H](c3ccccc3)C2)c1 [48-76] = 27

# compound CS(=O)(=O)c1cccc(N2CCN(C[C@H]3CC[C@H](C(F)(F)F)CC3)[C@H](c3ccccc3Cl)C2)c1 (single isomer, unassigned) [48-47] ; its Cell LXRβ efficacy = 26
